Test system: Colon cancer organoid
measurement-notes: Optimized Dual-Glo assay to identify co-culture induced drug vulnerabilities using donated chemical probes and chemogenomics kinase set in O06 CRC organoid and F06 CAF mono and co-culture. […] Cell viability is reported both mono and co-culture models.
Type: functional, Homo sapiens
Design: dose or concentration left out as unconfirmed
stated-conditions: Culture type Mono-Culture; Transduced with Renilla-dsRed lentivirus
parameter: Cell Viability
Please append the unit to your numeric answer.

Consider the worked cases shown below.
compound-structure | Cell Viability
CN1CCN(c2cnc3c(C4CCN(C(=O)c5ccc(OC(F)(F)F)cc5N)CC4)ncnc3c2)CC1 | 90.7895%
O=C(NOC[C@H](O)CO)c1ccc(F)c(F)c1Nc1ccc(I)cc1F | 36.7215%
Nc1ccc(C(=O)Nc2cccc(-c3nc(N4CCOCC4)c4oc5ncccc5c4n3)c2)cn1 | 93.3288%

// next item, Cell Viability requested
INPUT: Look up and state reported Cell Viability for `Cc1noc(C)c1-c1cnc2c(-c3ccc(C(=O)O)cc3)cn([C@@H](C)c3ccccn3)c2c1`
OUTPUT: 265.011%

* * *

Tested on: Colon cancer organoid
measurement-notes: Optimized Dual-Glo assay to identify co-culture induced drug vulnerabilities using donated chemical probes and chemogenomics kinase set in O14 CRC organoid and F14 CAF mono and co-culture. […] Cell viability is reported both mono and co-culture models.
Format: functional, Homo sapiens
Parameters: dose or concentration left out as unconfirmed
stated-conditions: Culture type Mono-Culture; Transduced with Renilla-dsRed lentivirus
parameter: Cell Viability (%)
Numbers only here, please. The scale is %.

Worked cases, answers included:
compound | Cell Viability [%]
COc1cccc2c1c(O)c(C(=O)N(C)c1ccc(C(F)(F)F)cc1)c(=O)n2C | 97.8059
CN(C)CC#Cc1ccc(OCCCc2sc(N3CCc4cccc(C(=O)Nc5nc6ccccc6s5)c4C3)nc2C(=O)O)c(F)c1 | 75.159
Cc1cc(C)cc([C@@H]2c3cc(C)ccc3NC(=O)CN2C(=O)c2ccc(Br)s2)c1 | 467.801
CCC(=O)Nc1cccc(Oc2nc(Nc3ccc(N4CCN(C)CC4)cc3OC)ncc2Cl)c1 | 93.4216

Consider the additional compound presented here.
INPUT: With Colon cancer organoid as the test system, provide measured Cell Viability for this compound: C[C@H]1CC(=O)Nc2cc(C(=O)NCCC3CC3)ccc2N1C(=O)N1CC2CC2C1 (stereo not given in full)
OUTPUT: 95.2313

* * *

Cell Viability values, listed per item
Test system: Colon cancer organoid
measurement-notes: Optimized Dual-Glo assay to identify co-culture induced drug vulnerabilities using donated chemical probes and chemogenomics kinase set in O14 CRC organoid and F14 CAF mono and co-culture. […] Cell viability is reported both mono and co-culture models.
Assay type: functional, Homo sapiens
Design: dose or concentration left out as unconfirmed
stated-conditions: Culture type Mono-Culture; Transduced with Renilla-dsRed lentivirus
Give the quantity in %, number only.

compound-structure | Cell Viability (%)
C[C@@H](c1cccc(CN)c1)n1cc(Cl)cc(C(N)=O)c1=N.Cl | 96.7861
C[C@@H]1CC(=O)Nc2cccc(-c3ccc4c(c3)c(-c3cnn(C)c3)nn4C)c2N1 | 159.466

INPUT: Give the measured Cell Viability for `COc1cc(N2CCC(O)CC2)ccc1Nc1cc(Nc2ccccc2S(=O)(=O)C(C)C)c2cc[nH]c2n1`
OUTPUT: 78.3072

INPUT: Using known records, supply Cell Viability for `CC(=O)Nc1nc(CN2CCC[C@H](Cc3cc(C)nc(C)c3)C2)cs1`
OUTPUT: 92.0646

INPUT: Supply Cell Viability value. Item: `Cc1c(Nc2ccc(S(=O)(=O)N3CCN(C)CC3)cc2F)nc2ccc(-c3cnn(C4CC4)c3)cn2c1=O`
OUTPUT: 92.3914

INPUT: Tell me its Cell Viability given `CSc1cccnc1N1CCN(Cc2nc3ccccc3[nH]2)CC1` as the entry.
OUTPUT: 96.7022

INPUT: Supply Cell Viability value. Item: `Cc1c(Oc2ccc(F)cc2)c(OC(C)C)nn1-c1ccc(C2CC2)cn1`
OUTPUT: 92.4816

INPUT: Entry `O=C(O)c1ccc(-c2coc3ncc(-c4ccccc4)cc23)cc1Cl` needs its Cell Viability filled in; supply it.
OUTPUT: 87.3818

INPUT: Give the reported value of Cell Viability for this record: `CNCCN1CCC(OCc2ccccc2)CC1`
OUTPUT: 109.763

INPUT: Look up Cell Viability of `COc1cc(C#N)ccc1S(=O)(=O)Nc1ccc2c(c1)cc(C)c(=O)n2C` and report it.
OUTPUT: 112.833

* * *

Tested on: Colon cancer organoid
measurement-notes: Optimized Dual-Glo assay to identify co-culture induced drug vulnerabilities using donated chemical probes and chemogenomics kinase set in O14 CRC organoid and F14 CAF mono and co-culture. […] Cell viability is reported both mono and co-culture models.
Assay type: functional, Homo sapiens
Design: dose or concentration left out as unconfirmed
stated-conditions: Culture type Mono-Culture; Transduced with Renilla-dsRed lentivirus
parameter: Cell Viability (%)
Lab book: enter the figure in %, no units written.

// worked examples, Cell Viability included
compound-structure | subject-of-test | quantity-unit | Cell Viability
CN(C)C(=O)c1sc2nc(N3CCC(S(C)(=O)=O)CC3)cc(C(F)(F)F)c2c1N | Colon cancer organoid | % | 92.7462
CNC(=O)c1cc(C(=O)NC2CC2)cn(Cc2ccccc2)c1=O | Colon cancer organoid | % | 134
CCCCNc1ncc(-c2ccc(CN3CCOCC3)cn2)c(N[C@H]2CC[C@H](O)CC2)n1 | Colon cancer organoid | % | 71.142
Nc1ncnc2c1ccn2[C@@H]1O[C@H]([C@H](O)c2ccccc2)[C@@H](O)[C@H]1O | Colon cancer organoid | % | 80.8035

Would you kindly look at the next entry?
INPUT: Check the records and state Cell Viability for `O=C(Nc1cccnn1)N1CC(C/C=C/c2cncc(Oc3ccc(C(F)(F)F)cn3)n2)C1`
OUTPUT: 99.7577

* * *

# key: entry, value: Cell Viability
System: Colon cancer organoid
measurement-notes: Optimized Dual-Glo assay to identify co-culture induced drug vulnerabilities using donated chemical probes and chemogenomics kinase set in O06 CRC organoid and F06 CAF mono and co-culture. […] Cell viability is reported both mono and co-culture models.
Assay type: functional, Homo sapiens
Set-up: dose or concentration left out as unconfirmed
stated-conditions: Culture type Mono-Culture; Transduced with Renilla-dsRed lentivirus
Please respond with the number in % and leave the unit unwritten.

compound-structure | Cell Viability (%)
Cc1nnc2c3ccccc3c(N[C@@H](C)[C@H](c3ccccc3)N(C)C)nn12 | 129.772
CN(C(=O)c1cnn2cccnc12)c1cc2c(cc1N1CCOCC1)C(=O)N(C[C@@H](F)C(C)(C)O)C2 | 97.8487
c1ccc2oc(-c3csc(C4CCN(Cc5nc6ncccc6[nH]5)CC4)n3)cc2c1 | 102.554
Clc1cccc(-c2nnnn2Cc2cccnc2)c1Cl | 109.73
C=CC(=O)Nc1ccc2[nH]c(=O)n(C3CCN(Cc4ccc(-c5nc6cc[nH]c(=O)c6cc5-c5ccccc5)cc4)CC3)c2c1 | 71.4174
CC(C)N(CCCNC(=O)Nc1ccc(C(C)(C)C)cc1)C[C@H]1O[C@@H](n2cc(Br)c3c(N)ncnc32)[C@H](O)[C@@H]1O | 88.3272
CC(C)(O)[C@H](F)CN1Cc2cc(NC(=O)c3cnn4cccnc34)c(N3CCOCC3)cc2C1=O | 93.3836
Cc1c(NC(=O)c2ccc(C(C)(C)C)cc2)cccc1-c1cn(C)c(=O)c(Nc2ccc(C(=O)N3CCOCC3)cc2)n1 | 97.4758
O=C(O)[C@@H]1[C@@H](Cn2nnc3ccccc3c2=O)CC[C@H]1C(=O)c1ccc(OCCC2CCOCC2)cc1 | 83.1858
C[C@@H]1CC(=O)Nc2cccc(-c3ccc4c(c3)c(-c3cnn(C)c3)nn4C)c2N1 | 205.908

Then this compound:
INPUT: Please indicate Cell Viability recorded for `CO[C@H]1CNC[C@@H](OCC2CCC(F)(F)CC2)[C@@H]1Nc1ncc(-c2cncc(C)c2)c2cc(C)c(=O)[nH]c12`
OUTPUT: 128.396

* * *

Tested on: Colon cancer organoid
measurement-notes: Optimized Dual-Glo assay to identify co-culture induced drug vulnerabilities using donated chemical probes and chemogenomics kinase set in O06 CRC organoid and F06 CAF mono and co-culture. […] Cell viability is reported both mono and co-culture models.
Format: functional, Homo sapiens
Design: dose or concentration left out as unconfirmed
stated-conditions: Culture type Co-Culture; Transduced with Renilla-dsRed lentivirus
Decide using Cell Viability alone. Strictly below 90%: label 1. Equal to or above 90%: label 0.

Worked examples follow.
compound | class-label
Cn1cc(C2=C(c3cn(C4CCN(Cc5ccccn5)CC4)c4ccccc34)C(=O)NC2=O)c2ccccc21 [ENZASTAURIN] | label 0
CNc1cc(Oc2cc(C(=O)Nc3cc(N4CCN(C)CC4)cc(C(F)(F)F)c3)ccc2C)ncn1 | label 1
C=CC(=O)Nc1ccc2[nH]c(=O)n(C3CCN(Cc4ccc(-c5ccc6c(c5)NC(=O)CO6)cc4)CC3)c2c1 [RL2578] | label 0
CC#CC(=O)N1CCC[C@H]1c1nc(-c2ccc(C(=O)Nc3ccccn3)cc2)c2c(N)nccn12 [ACALABRUTINIB] | label 1
O=C(NCc1ncc(C(F)(F)F)cc1Cl)c1ccc2c(c1)C1(CCS(=O)(=O)CC1)[C@@H](C1CC1)N2S(=O)(=O)c1ccc(F)cc1 [BAY-786] | label 0

INPUT: Hello, is Cell Viability of the following compound strictly smaller than 90%? CCOc1cc2ncc(C#N)c(Nc3ccc(OCc4cccc(F)c4)c(Cl)c3)c2cc1NC(=O)/C=C/CN(C)C [HKI-357]
OUTPUT: label 1

INPUT: Take the compound O=C1NC(c2ccccn2)Sc2ccccc21 (stereo unspecified) [BTZO-4] and say whether its Cell Viability is less than 90%.
OUTPUT: label 0

INPUT: is_below(Cell Viability, 90%) for `COc1cc(-c2cn(C)c(=O)c3cnccc23)c(OC)cc1CN(C)C` ?
OUTPUT: label 0
